System: rhythmic bladder contractions induced by substance P
experiment-notes: Inhibitory effect on the rhythmic bladder contractions induced by substance P in anesthetized rats
Assay type: in vivo, rat
recorded-conditions: time during which frequency of rhythmic contraction was completely inhibited, 0.25 mg/kg of the compound, substance P infusion
quantity: 100% inhibition time range

[[record]]
compound = "O=C(O)Cc1nc(-c2ccc3occc3c2)oc1-c1ccsc1 [Preparation Example 255]"
target = "rhythmic bladder contractions induced by substance P"
reading = "B (A≧20>B≧10>C (minute))"

[[record]]
compound = "CSc1ccc(-c2nc(-c3ccc(Cl)s3)c(CC(=O)O)s2)cc1 [Preparation Example 590]"
target = "rhythmic bladder contractions induced by substance P"
reading = "B (A≧20>B≧10>C (minute))"

